ELISA endpoint: recorded values
target_under_test: Heartland virus (HRTV) nucleocapsid (N) protein (Heartland virus (HRTV))
Give me the value, and tack the unit on after it.

MAb 2AG9 (antibody, V domains shown) VH: ELARPGASVKLSCKASGYTFTNYYMQWIKQRPGQGLEWIGAVYPGDGDTRYTQKFKGKASLTADKSSTTAYMQLSSLASEDSAVYYCTRGDYEGTWFTYWGQGTLVTVSA VL: DIVMTQTTAIMSASPGEKVTMTCSASSSVSYMHWYQQKSGTSPKRWMYDTSKLASGVPGRFSGSGSGTTYSLTISTMEAEDAATYYCQQWSSNPPTFGGGTKLEIK :: 1.53 ng/mL

From here, focus on the item given below.
Please report ELISA endpoint for the following binder: MAb 2BB6 (antibody, V domains shown) VH: EVQLEESGPDLVKPSQSLSLTCTVTGFSITSGYSWHWIRQFPGNKLEWMGYIHFSGSTNYNPSLKSRISITRDTSKNQFFLQLSSVTTDDTGTYYCARDLTGIDSWGQGTTLTVSS VL: DIVMTQTPAIMSASPGEKVTISCSASSSVSYMYWFQQKPGSSPKPWIYRTSNLASGVPARFSGSGSGTSYSVTISSMEAEDAATYYCQQYHSYPLTFGAGTKLELK 10000 ng/mL
